# TGT: Cyclin-dependent kinase 4/G1/S-specific cyclin-D1 [L188C] (Homo sapiens)
# PROTOCOL_DESCRIPTION: CDKs Assay
pIC50: −log10 of the molar value.
Parameter class (string): assigned from measured pIC50. Ranges: bottom (below 6), middle (6 to below 7), top (7 or more)

> print(dat)
                                    compound  classification
 1  CCn1c(=O)ccc2cnc(Nc3ccc(N4CCOCC4)cc3)nc21          middle
 2      O=c1ccc2cnc(Nc3ccccc3)nc2n1C1CCCCCC1          middle
 3  CC(C)n1c(=O)ccc2cnc(Nc3ccc(N4CCN(C)CC4)cc3)nc21             top
 4            Cn1c(=O)ccc2cnc(Nc3ccccc3)nc21          bottom
 5  O=c1ccc2cnc(Nc3ccccc3)nc2n1C1CC2CCC1C2 (stereo not drawn)             top
 6       O=c1ccc2cnc(Nc3ccccc3)nc2n1C1CCCCC1             top
 7        O=c1ccc2cnc(Nc3ccccc3)nc2n1C1CCCC1          middle
 8  CCN(CC)CCOc1ccc(Nc2ncc3ccc(=O)n(C(C)C)c3n2)cc1             top
 9  O=c1ccc2cnc(Nc3ccccc3)nc2n1CC1CO1 (stereo not drawn)          bottom
10          CCCn1c(=O)ccc2cnc(Nc3ccccc3)nc21          middle
